Origin of measurements: patent US20200087373A1

So I've got a bunch of binders here, and I need their cAMP agonism, nM (EC50) values.
Biological target: T1, human GIP receptor (human, UniProt P48546 22-466)
T1 sequence (looked up): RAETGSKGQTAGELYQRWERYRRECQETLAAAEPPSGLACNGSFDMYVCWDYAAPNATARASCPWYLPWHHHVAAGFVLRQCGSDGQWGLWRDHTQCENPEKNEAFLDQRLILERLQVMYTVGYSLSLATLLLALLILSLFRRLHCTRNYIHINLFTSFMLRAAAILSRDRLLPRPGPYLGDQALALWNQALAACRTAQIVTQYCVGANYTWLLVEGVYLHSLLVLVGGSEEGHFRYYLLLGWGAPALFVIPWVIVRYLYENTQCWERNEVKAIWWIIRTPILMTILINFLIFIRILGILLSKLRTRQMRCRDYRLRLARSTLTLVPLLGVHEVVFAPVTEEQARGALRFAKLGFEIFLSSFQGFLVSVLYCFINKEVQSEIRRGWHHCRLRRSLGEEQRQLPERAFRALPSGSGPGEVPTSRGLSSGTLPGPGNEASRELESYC
Experiment: cell-based or functional assay
Ends that are not written are not given here. * marks the point of attachment. Stearoyl = CCCCCCCCCCCCCCCCCC(=O)*; Palmitoyl = CCCCCCCCCCCCCCCC(=O)*; Lauroyl = CCCCCCCCCCCC(=O)*
The answer consists of two parts: a number and, after it, its unit.

INSERT INTO assay_data (binder, readoutname, experimentalresult) VALUES
  ('EGTFISDYSIAMDK(Palmitoyl)IHQQDFVNWLLAQK-NH2 [AT105 [hGIP(3-30)NH2-C16/16]]', 'cAMP agonism, nM (EC50)', '1140 nM'),
  ('EGTFISDYSIAMDK(Lauroyl)IHQQDFVNWLLAQK-NH2 [AT102 [hGIP(3-30)NH2-C12/16]]', 'cAMP agonism, nM (EC50)', '0.7 nM');

Proceed to the following item.
Request: // returns reported cAMP agonism, nM (EC50) for input EGTFISDYSIAMDK(Stearoyl)IHQQDFVNWLLAQK-NH2 [AT114 [hGIP(3-30)NH2-C18/16]]
Result: 2960 nM
